The following binders are shown together with reported % of positive control peptide binding values.
- subject_of_test: T1, MHC class I allele B*0702 (bound via biotin to streptavidin-coated plate)
- T1 construct: iTopia MHC class I monomer on the plate; placeholder peptide and b2M removed, then reconstituted with test peptide and fresh b2M; also called B7; HLA B7
- assay_details: iTopia peptide binding assay
parameter: % of positive control peptide binding

>>> result("ERQNRSFEG (also called Peptide No 95) [5T4 9 mer peptide 95 ERQNRSFEG]")
"1%"
>>> result("RTVKCVNRN (also called Peptide No 37) [5T4 9 mer peptide 37 RTVKCVNRN]")
"3%"
>>> result("FLTGNQLAV (also called Peptide No 49) [5T4 9 mer peptide 49 FLTGNQLAV]")
"6%"
>>> result("LNLSGSRLD (also called Peptide No 62) [5T4 9 mer peptide 62 LNLSGSRLD]")
"7%"
